protocolNotes: PK study after subcutaneous injection
Format: in vivo, Sprague Dawley rats
settings: male, Sprague Dawley, rat, plasma, sc; after 6 days, one subcutaneous injection of LPV/RTV ISNPs; read-out: RTV Ctrough
parameterMeasured: concentration at 6 days

INSERT INTO results (testsmiles, valueobserved) VALUES
  ('CC(C)c1nc(CN(C)C(=O)N[C@H](C(=O)N[C@@H](Cc2ccccc2)C[C@H](O)[C@H](Cc2ccccc2)NC(=O)OCc2cncs2)C(C)C)cs1', '~50 ng/mL');
